readout type: intrinsic clearance, human liver microsomes (mL/min/kg)

In the examples that follow, each entry is paired with its recorded intrinsic clearance, human liver microsomes.
[[record]]
smiles_str = "O=C(c1ccccc1-c1ncc(-c2ccccc2F)o1)N1CCC1"
result_value = 35.1

[[record]]
smiles_str = "COc1ccc2nc(C)c(C(=O)Nc3ccccc3N3CCCC3)cc2c1"
result_value = 182

[[record]]
smiles_str = "CC(C)c1nc(CCn2ccnc2-c2ccoc2)cs1"
result_value = 234


[I] O=C(Nc1ccc(C2CCCCC2)cc1)c1ccc(S(=O)(=O)NCc2cccnc2)cc1
[II] Cc1cc(N(C)CC(C)(C)O)ncc1Br
[III] Cc1n[nH]c(C)c1CCCN(C)c1cncc(C(=O)N(C)C)n1
[IV] COCCc1nc(-c2ccccc2-c2ccccc2)n(CCO)n1
-- ask Output the entries ranked by intrinsic clearance, human liver microsomes from maximum down to minimum. Write the labels in rank order as requested.
-- reply I, III, II, IV

====

readout type: intrinsic clearance, rat liver microsomes (L/h/kg)

[[record]]
smiles_str = "Cc1csc(Nc2ccc(C#N)cc2)n1"
result_value = 37.2

[[record]]
smiles_str = "Fc1cc(Br)ccc1CNCc1ccccn1"
result_value = 26.7

[[record]]
smiles_str = "Cc1sc2ncnc(OCC(=O)NC3CCCCC3)c2c1C"
result_value = 22.6

[[record]]
smiles_str = "c1ccc(OCCN2CCN(c3ncccn3)CC2)cc1"
result_value = 31


[P] CCc1cc(CNC(=O)NC2CCN(CC3CCCCC3)CC2)on1
[Q] COc1cccc(CN2CCc3nc(-c4cnccn4)nc(O)c3C2)c1
[R] O=C(c1ccc2oc(CCCc3ccccc3)nc2c1)N1CCC(Oc2cccnc2)CC1
[S] COCc1ncc(CN2CCC(Oc3ccccc3C)CC2)cn1
-- ask Parameters: sort_field (intrinsic clearance, rat liver microsomes), sort_dir (desc). Use the labels to give the ranking in the order requested.
-- reply R, S, P, Q

[P] Cc1ccncc1-c1ccc(-c2ccn[nH]2)cc1
[Q] Cc1cc(=O)n(C)c2cc(N3C(=O)CC[C@H](NS(=O)(=O)CC(C)C)[C@H]3c3ccc(Cl)cc3)ccc12
[R] Cc1cc(C(=O)N(C)CCCC2CCCC2)cc(C)n1
-- ask Would you mind ranking these molecules by ascending intrinsic clearance, rat liver microsomes? Return value: ordered labels per request.
-- reply P, Q, R
(P: 3.95 L/h/kg, Q: 56.6 L/h/kg, R: 339 L/h/kg)

====

readout type: MDR1-MDCK efflux ratio

[[record]]
compound = "Nc1nc2ccccc2nc1N1CCCC1"
readout_type = "MDR1-MDCK efflux ratio"
result_value = 0.533

[[record]]
compound = "Cc1ccc(C(=O)NC2CCN(CC#N)CC2)cc1Br"
readout_type = "MDR1-MDCK efflux ratio"
result_value = 0.9

[[record]]
compound = "CCOC(=O)C1CCN(C(=O)c2cc3occc3c(Nc3ccc(F)cc3)n2)CC1"
readout_type = "MDR1-MDCK efflux ratio"
result_value = 1.32


[A] CN(Cc1nc(N)c2ccccc2n1)Cc1ccc(F)cc1F
[B] CN(CCOc1ccccc1)CC(=O)NCCc1ccccc1
-- ask Lab note: check whether A or B shows the higher recorded MDR1-MDCK efflux ratio. Label of pick, please.
-- reply A
(A: 3.49, B: 0.728)

[I] Clc1ccc(Cc2nc(-c3cccnc3)no2)cc1
[II] Cc1cc(C)c(S(=O)(=O)Nc2ccc(N(C)C)cc2)c(C)c1-n1cnnn1
[III] CNCc1cc(NC)nc(C2CCCN2C(=O)C(C)(C)c2ccc(C)cc2)n1 (centres undefined)
[IV] Fc1ccccc1-c1noc(-c2ccc(NCCc3cnccn3)nc2)n1
[V] CCCCOc1ccccc1-c1cc(C(=O)NCc2ccccc2C)[nH]n1
-- ask Sort by MDR1-MDCK efflux ratio, descending. To answer, write out the labels according to the requested order.
-- reply III, II, V, I, IV

[1] Cc1cc(N(C)C)nc(N(C)Cc2csc(C)n2)n1
[2] COCC(=O)N1CCC(Cc2ccccc2-c2cccc(F)c2)(C(=O)NC(C)C)CC1
-- ask Looking at recorded values for MDR1-MDCK efflux ratio, does 1 or 2 come in lower? In your reply, give the label of the chosen option.
-- reply 1

[A] Cc1cc(CN(C)Cc2cscn2)no1
[B] CC(C)Oc1ccc(C#N)cc1NC1CCN(C)CC1
[C] CCS(=O)(=O)N1CCN(c2ccc(Nc3ncc(C(N)=O)c(NC4CC4)n3)cc2)CC1
-- ask Output the entries ranked by MDR1-MDCK efflux ratio from maximum down to minimum. // format: requested-order list of labels
-- reply C, B, A
(C: 39.4, B: 2.51, A: 0.537)

[I] CC(C)c1noc(-c2ccc(N(C)Cc3cccnc3)nc2)n1
[II] O=C(NCCc1ccccc1)c1ccc(NC(=O)N2CCCCc3ccccc32)cc1
-- ask When their MDR1-MDCK efflux ratio values are compared, which is larger, I or II ? Selection: enter the item's label.
-- reply II
(II: 2.11, I: 0.511)

[A] CN1CCNc2nc3ccccc3nc21
[B] O=C(Nc1ccc(N2CCCC2)cn1)c1ccc(-c2cnco2)cc1
[C] Fc1ccc(-n2nc(C3CCOCC3)nc2-c2cn[nH]c2)c(F)c1
[D] O=C(CNc1cc(N2CCCC2=O)ccc1F)N1CCCCCC1
-- ask List the 4 entries from lowest MDR1-MDCK efflux ratio to highest MDR1-MDCK efflux ratio value. Response format: the labels, sorted as the prompt asks.
-- reply B, A, D, C

====

readout type: intrinsic clearance, rat liver microsomes (mL/min/kg)

[[record]]
compound = "CC1(CNC(=O)N2CCN(Cc3ccon3)CC2)CCCC1"
result_value = 308

[[record]]
compound = "COc1ccc(Cc2cccc(C3CCN(C(=O)C4CCCC4)CC3)n2)cc1"
result_value = 883

[[record]]
compound = "CC1CCC(O)(CSc2nnnn2C2CC2)CC1 (stereo unspecified)"
result_value = 355

[[record]]
compound = "N#Cc1ccc(CNc2cnc3ccccc3c2)o1"
result_value = 238

[[record]]
compound = "Nc1nccc2ccc(-c3cccc(F)c3)cc12"
result_value = 790


[A] COCc1cc(-c2nc(CCc3ccccc3)n[nH]2)ccc1OC
[B] Cc1cc(-c2cn(C)nc2[C@H]2CC[C@H](CNC(=O)C(C)C)CC2)on1
[C] O=C(NC[C@]1(O)CCN(Cc2cscn2)C[C@H]1O)c1c[nH]cn1
[D] Cc1c(Cl)cccc1NC(=O)C(C)N1CCCN(c2nccs2)CC1 (stereo unspecified)
-- ask # rank by intrinsic clearance, rat liver microsomes, ascending (min first) List the labels, following the order given in the request.
-- reply C, B, A, D

====

Details: pH 6.8
readout type: aqueous solubility (µg/mL)

Consider the worked cases shown below.
[[record]]
molecule = "CNc1cc(C)nc(-c2ccnc3c2ccn3C)n1"
result_value = 29.2

[[record]]
molecule = "COc1ccc(-c2cnn3c(N)c(-c4ccccc4)cnc23)cc1OC"
result_value = 0.19

[[record]]
molecule = "Cc1cc(F)ccc1C(=O)NCc1ccc(O)c(O)c1"
result_value = 40.5

[[record]]
molecule = "Cc1nc(O)c2c(n1)CN(Cc1ccccc1)CC2"
result_value = 42.7

[[record]]
molecule = "c1ccc(-c2c(-c3ccc(OCCN4CCCC4)cc3)[nH]c3ncnc(NCC4SCCS4)c23)cc1"
result_value = 3.72

[[record]]
molecule = "COCc1nc(-c2cc(F)ccc2F)c(C)s1"
result_value = 3.6

[[record]]
molecule = "Cc1cnc(NCc2ccccc2-n2ccnc2)nc1N(C)C"
result_value = 52.2

[[record]]
molecule = "COC(=O)c1ccc(NC(=O)N(C)Cc2ccccc2CN2CCCC2)cc1"
result_value = 40.8


[I] COc1ccc(Br)c(-c2nnc(N)o2)c1
[II] CC(C)(C)C(=O)N1CCN(C(=O)CCN2CCOC2=O)CC1
[III] Cc1noc(-c2ccc(-c3ccc(CC(=O)O)cc3)cc2)c1NC(=O)O[C@H](C)c1ccccc1Cl
-- ask Please list these molecules in decreasing order of aqueous solubility. Quick reminder: the answer is the labels in the order asked.
-- reply II, I, III
(II: 62.7 µg/mL, I: 24.8 µg/mL, III: 10.4 µg/mL)

====

Settings: pH 6.8
readout type: aqueous solubility (µg/mL)

As a guide, the following entries are already answered.
[[record]]
compound = "COc1cccc(C2NC(=O)NC(C)=C2C(=O)OCc2ccc3c(c2)OCO3)c1 (configuration not stated)"
result_value = 18

[[record]]
compound = "CC(C)(C)c1nnnn1CC(=O)NC12CC3CC(CC(C3)C1)C2"
result_value = 25.8

[[record]]
compound = "CCS(=O)(=O)CC(=O)Nc1cc(C)ccc1C"
result_value = 40.4


[I] COc1ccccc1OC1CCN(Cc2ccccc2C#N)CC1
[II] C=CC(=O)N1CCC[C@@H](n2nc(-c3cccc(C(=O)Nc4ccc(C(C)C)c(C)c4)c3)c3c(N)ncnc32)C1
[III] O=C(NCC(=O)N1CCN(C2CC2)CC1)c1ccccc1
[IV] O=C(Nc1nc2ccccc2[nH]1)C1CCCCC1
-- ask Your job: order these 4 records by aqueous solubility, ascending. // format: requested-order list of labels
-- reply II, IV, I, III
(II: 0.17 µg/mL, IV: 2.44 µg/mL, I: 41.1 µg/mL, III: 62.3 µg/mL)
